B1: FAM107A (parent)
chain: HRRGLGVDSKPELQRVLEHRRRNQ

Variants of: B1
testSummary: protein stability index of a GFP-peptide fusion (GPS, HEK-293T) (PSI 1-6); higher = more stable;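 also: lentivirally expressed fusions sorted by FACS into six bins by GFP to DsRed ratio, PSI derived from sequencing read proportions per bin multiplied by bin number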
conditionParameters: c terminus: a fixed tail appended
Form field: protein stability index (one value per entry).

variantNotation: Q14I
protein stability index: 2.75

variantNotation: E18R
protein stability index: 4.12

variantNotation: R22T
protein stability index: 3.76

variantNotation: R2V
protein stability index: 5

variantNotation: N23V
protein stability index: 3.33
